Observed pKi values for Mu-type opioid receptor (Homo sapiens) are listed in what follows.
Interpret pKi as the negative base-10 log of the concentration measured in mol/L.

Would you please look over these solved cases?
>>> df
                            smiles_notation                            assay_target  property_name  reading
0  C=CCNC(=O)O[C@H]1C[C@@H](C(=O)OC)[C@]2(C)CC[C@H]3C(=O)O[C@H](c4ccoc4)C[C@]3(C)[C@H]2C1=O  Mu-type opioid receptor (Homo sapiens)            pKi     6.19
1  COC(=O)[C@@H]1C[C@H](OC(=O)C(C)C)C(=O)[C@H]2[C@@]1(C)CC[C@H]1C(=O)O[C@H](c3ccoc3)C[C@]21C  Mu-type opioid receptor (Homo sapiens)            pKi     5.53
2  COC(=O)[C@@H]1C[C@H](O)[C@H](O)[C@H]2[C@@]1(C)CC[C@H]1C(=O)O[C@H](c3ccoc3)C[C@]21C  Mu-type opioid receptor (Homo sapiens)            pKi     5.24

Would you kindly look at the next entry?
Asked: Identify measured pKi obtained with Mu-type opioid receptor (Homo sapiens) for C=C(C)C(=O)O[C@H]1C[C@@H](C(=O)OC)[C@]2(C)CC[C@H]3C(=O)O[C@H](c4ccoc4)C[C@]3(C)[C@H]2C1=O .
Sequence (P35372 whole entry): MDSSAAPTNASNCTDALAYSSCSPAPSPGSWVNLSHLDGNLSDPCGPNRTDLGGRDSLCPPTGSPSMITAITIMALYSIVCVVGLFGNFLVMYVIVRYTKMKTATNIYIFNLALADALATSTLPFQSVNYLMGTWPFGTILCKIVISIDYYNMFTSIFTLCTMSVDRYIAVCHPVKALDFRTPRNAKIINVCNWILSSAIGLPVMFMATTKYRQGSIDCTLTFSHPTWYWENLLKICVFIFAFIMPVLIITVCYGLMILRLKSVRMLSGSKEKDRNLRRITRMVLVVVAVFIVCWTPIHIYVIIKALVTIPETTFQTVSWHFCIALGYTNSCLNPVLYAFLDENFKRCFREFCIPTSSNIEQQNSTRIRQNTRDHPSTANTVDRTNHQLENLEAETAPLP
Given back: 6.59

###

target: Delta-type opioid receptor (Homo sapiens, UniProt P41143); assay: Stimulation of [35S]-GTP gammaS binding to Opioid receptor delta 1 expressed in CHO cells; ND = Not determined
Sequence (P41143 whole entry): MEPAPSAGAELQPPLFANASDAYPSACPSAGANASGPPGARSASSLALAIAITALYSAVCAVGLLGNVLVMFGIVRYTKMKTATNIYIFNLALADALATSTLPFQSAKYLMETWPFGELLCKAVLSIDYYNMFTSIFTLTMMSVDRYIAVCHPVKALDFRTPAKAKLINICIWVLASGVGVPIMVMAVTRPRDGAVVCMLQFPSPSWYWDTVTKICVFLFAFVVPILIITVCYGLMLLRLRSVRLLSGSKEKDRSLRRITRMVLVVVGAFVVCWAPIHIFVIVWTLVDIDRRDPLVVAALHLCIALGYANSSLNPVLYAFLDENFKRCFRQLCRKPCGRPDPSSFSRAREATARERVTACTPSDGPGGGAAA
PROPERTY NAME: pEC50
Interpret pEC50 as the negative base-10 log of the concentration measured in mol/L.

Asked: Recall and state the measured pEC50 for COC(=O)[C@@H]1C[C@H](OC(=O)Nc2ccccc2)C(=O)[C@H]2[C@@]1(C)CC[C@H]1C(=O)O[C@H](c3ccoc3)C[C@]21C .
Given back: 5.60

###

biological target: Opioid receptors; mu & kappa (Homo sapiens) (UniProt P41145+P35372); experiment: Relative affinity for human opioid receptor mu1 and kappa1; format: protein assay
Sequence (P41145 whole entry, looked up, one chain of several): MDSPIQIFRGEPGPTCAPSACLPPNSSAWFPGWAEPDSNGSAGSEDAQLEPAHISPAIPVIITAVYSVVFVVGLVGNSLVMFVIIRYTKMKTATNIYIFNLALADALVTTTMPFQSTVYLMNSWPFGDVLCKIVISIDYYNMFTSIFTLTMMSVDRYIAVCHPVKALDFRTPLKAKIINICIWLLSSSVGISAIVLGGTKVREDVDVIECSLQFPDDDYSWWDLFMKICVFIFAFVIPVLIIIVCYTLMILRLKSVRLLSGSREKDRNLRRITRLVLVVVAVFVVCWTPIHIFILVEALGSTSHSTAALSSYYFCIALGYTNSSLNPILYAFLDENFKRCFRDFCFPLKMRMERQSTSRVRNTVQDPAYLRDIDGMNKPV
PROPERTY NAME: Selectivity
A bare number is all that is needed in reply.

Asked: Recall and state the measured Selectivity for COC(=O)[C@@H]1C[C@H](OC(=O)c2cccnc2)C(=O)[C@H]2[C@@]1(C)CC[C@H]1C(=O)O[C@H](c3ccoc3)C[C@]21C .
Given back: 0.04

Asked: Recall and state the measured Selectivity for COC(=O)[C@@H]1C[C@H](O)[C@H](O)[C@H]2[C@@]1(C)CC[C@H]1C(=O)O[C@H](c3ccoc3)C[C@]21C .
Given back: 2

###

target: Kappa-type opioid receptor (Homo sapiens, UniProt P41145); test: Stimulation of [35S]GTP-gamma-S, binding to Opioid receptor kappa1 expressed in CHO cells
Sequence (P41145 whole entry): as the sequence (P41145 whole entry, looked up, one chain of several) above
API: label(entry) gives t if the entry's EC50 is strictly smaller than 400 nM; on equality or larger values it gives f.

Record excerpt, results attached:
>>> df
                                   compound                              assay_target  group_label
0  COC(=O)[C@@H]1C[C@H](OC(=O)C(C)C)C(=O)[C@H]2[C@@]1(C)CC[C@H]1C(=O)O[C@H](c3ccoc3)C[C@]21C  Kappa-type opioid receptor (Homo sapiens, UniProt P41145)            t
1  COC(=O)[C@@H]1C[C@H](OS(C)(=O)=O)C(=O)[C@H]2[C@@]1(C)CC[C@H]1C(=O)O[C@H](c3ccoc3)C[C@]21C  Kappa-type opioid receptor (Homo sapiens, UniProt P41145)            t
2  COC(=O)[C@@H]1C[C@H](OC(=O)c2ccccc2)C(=O)[C@H]2[C@@]1(C)CC[C@H]1C(=O)O[C@H](c3ccoc3)C[C@]21C [HERKINORIN]  Kappa-type opioid receptor (Homo sapiens, UniProt P41145)            f
3  COC(=O)[C@@H]1C[C@H](OC(=O)c2cccnc2)C(=O)[C@H]2[C@@]1(C)CC[C@H]1C(=O)O[C@H](c3ccoc3)C[C@]21C  Kappa-type opioid receptor (Homo sapiens, UniProt P41145)            f
4  COC(=O)[C@@H]1C[C@H](OC(=O)Nc2ccccc2)C(=O)[C@H]2[C@@]1(C)CC[C@H]1C(=O)O[C@H](c3ccoc3)C[C@]21C  Kappa-type opioid receptor (Homo sapiens, UniProt P41145)            f

Let us examine a further case.
Asked: Just wondering, is EC50 of CCC(=O)O[C@H]1C[C@@H](C(=O)OC)[C@]2(C)CC[C@H]3C(=O)O[C@H](c4ccoc4)C[C@]3(C)[C@H]2C1=O below 400 nM?
Given back: t
